Assay: CEETOX_H295R_11DCORT: CeeTox H295R High-throughput Steroidogenesis Assay for 11-Deoxycortisol (11DCORT) (AID 2283432);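 as to AC50: human adrenal H295R cells prestimulated with 10 µM forskolin for 48 h; 11-deoxycortisol secreted into the medium measured by LC-MS/MS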
Conditions: actives raise or lower the signal
Active and inactive are the calls of the source. The calls were made as follows: active = hit-call score of the fitted dose curve at least 0.9, where 1 is the maximum; inactive = score below 0.9.
observable: AC50

> print(dat)
                                   compound  observable  experimental.value
1  CCOc1cccc(-n2cc(C(=O)N3CCN(c4cc(C(=O)O)c5ccccc5c4)CC3)nc2-c2ccc(C)cc2)c1        AC50            inactive
2    COC(=O)c1c(Cl)c(Cl)c(C(=O)OC)c(Cl)c1Cl        AC50            inactive
3  COc1ccc(-n2nc(C(F)F)cc2-c2ccc(S(C)=O)cc2)cc1 (stereo not drawn)        AC50            inactive
4  Fc1ccccc1[C@@H](F)COC1CCC(Nc2ncnc3[nH]ncc23)CC1 (stereo partly drawn)        AC50       5 µM (active)
5                              Cc1ccc(O)cc1        AC50            inactive

Incoming: Name the reported AC50 value associated with the compound Cn1c(=O)cc(Oc2ccc(F)cc2F)c2cnc(NCC(C)(C)O)nc21
Outgoing: 8.38 µM (active)

Incoming: Any idea what AC50 was measured for Oc1ccc2c(c1)-c1ccccc1C2 ?
Outgoing: 40 µM (active)

Incoming: # input compound: CC(C)=CCCC(C)=CC=O ; wanted: its AC50
Outgoing: inactive

Incoming: Bench note: what AC50 did CC(C)(O)c1coc(S(=O)(=O)NC(=O)Nc2c3c(cc4c2CCC4)CCC3)c1 show?
Outgoing: inactive

Incoming: Query: AC50; subject: CCOC(=O)c1ccc(C2CCC(NC[C@H](O)COc3ccc(O)c(NS(C)(=O)=O)c3)CC2)cc1 (stereo partly drawn)
Outgoing: 2.78 µM (active)

Incoming: Name the reported AC50 value associated with the compound C=CCCCCCCCCC(=O)O
Outgoing: inactive

Incoming: I'd like to know its AC50. The compound in question is CC1=CC(=O)CC(C)(C)C1
Outgoing: inactive

Incoming: Record request: AC50 value, item O=c1[nH]c2ccc(S(=O)CCN3CCC(Cc4ccc(F)cc4)CC3)cc2o1 (stereo not drawn)
Outgoing: 5.59 µM (active)
